Provide the recorded anti His/HRP for the entries that follow.
Target: T1, human CD70, recombinant, N-terminally biotinylated (residues 39-193) (human, UniProt P32970 39-193, N-terminal biotin)
T1 construct: range 39-193; the same entry is used there; also called biotinylated human CD70; CD70 biotin
T1 sequence (looked up): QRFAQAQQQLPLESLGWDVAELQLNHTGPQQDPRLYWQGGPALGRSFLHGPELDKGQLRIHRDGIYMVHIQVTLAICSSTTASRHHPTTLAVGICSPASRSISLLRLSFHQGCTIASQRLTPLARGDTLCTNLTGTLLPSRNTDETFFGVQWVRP
Assay: CD27 blocking ELISA, 3 µM scFv, anti-His/HRP; note: unit not given here
Method: Human scFv antibodies binding CD70 were generated by panning a naïve human library with the extracellular domain (aa39-193) of CD70. 53 antibodies were identified. The ability of CD27 to block CD70 binding of the identified antibodies was measured by ELISA using two different assays. In the first assay, CD27 and his-tagged scFv anti-CD70 binders were simultaneously added to surface bound CD70, and the ability of the scFv binders to bind CD70 was detected with anti-His HRP. […]

## Task anti His/HRP lookup needed for 43-TC4-VII-C04 (scFv, His-tagged) scFv: QVQLLESGGGLVQPGRSLRLSCAASGFTFDDYAMHWVRQAPGKGLEWVSGISWNSGSIGYADSVKGRFTISRDNAKNSLYLQMNSLRAEDTAVYYCARDLVYYYGMDVWGQGTTVTVSSGGSGGSGGSGGSQSVLTQPPSVSGTPGQGVSISCSGSSSNIGWKTVNWYQQVPGMAPKLLIYSDNQRPSGVPDRFSGSKSATSASLAISGLQSEDEADYYCASWDASVNAPVFGGGTKLTVL , thanks.
## Result 1.81

## Task # get_value(readout='anti His/HRP', item= 13-TC7-I-E11 (scFv, His-tagged) scFv: QVQLQQWGAGLLKPSETLSLTCAVYGGSFSGYYWSWIRQPPGKGLEWIGEINHSGSTNYNPSLKSRVTISVDTSKNQFSLKLSSVTAADTAVYYCARSRRPYWYFDLWGRGTLVTVSSGGSGGSGGSGGSQSVLTQPPSVSGAPGQRVTISCTGSSSNIGAGYDVHWYQQLPGTAPKLLIYGDSNRPSGVPDRFSGSGSGTSASLAITGLQAEDEGDYYCQSFDSNLSRYVFGAGTKLTVL )
## Result 2.29

## Task Any idea what its anti His/HRP is? The binder is 46-TC7-VII-E11 (scFv, His-tagged) scFv: QVQLVQSGGGVVQPGRSLRLSCAASGFTFSSYAMHWVRQAPGKGLEWVAVISYDGSNKYYADSVKGRFTISRDNSKNTLYLQMNSLRAEDTAVYYCARDSSGYYYGSDAFDIWGQGTMVTVSSGGSGGSGGSGGSSYELTQPPSVSVALGQTVRITCQGDSLRSYYASWYQQKPGQAPVLVIYGKNNRPSGIPDRFSGSSSGNTASLTITGAQAEDEADYYCNSRDSSGNPWVFGGGTKVTVL
## Result 2.28

The origin of these recorded values is patent US20240252641A1.
